src = patent US5622828

# Experimental system: T1, secretory phospholipase A2 (sPLA2) (Homo sapiens, UniProt P14555 P14555:21-144)
# T1 sequence: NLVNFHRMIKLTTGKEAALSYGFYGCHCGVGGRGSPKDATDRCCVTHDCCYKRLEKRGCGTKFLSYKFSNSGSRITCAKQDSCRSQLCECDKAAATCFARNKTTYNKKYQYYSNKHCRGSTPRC
# Assay explanation: filter; biphasic, Kd2 1320 nM, mole fraction 0.50; TBSC, 37 C
# Condition context: tags: supplied by Eli Lilly
Endpoint: pKd
Formally, pKd is defined as -log10 of the concentration c, with c in mol/L.

Query: Retrieve pKd measured for 87.5 (ssRNA) RNA: GGGAGCUAUAAACGCAGCUCUGGGAUGAUGCCCACUGUCCAGCAUCUUCGACAUG and print it.
Reply: 8.51
